Data origin: patent US20250289894A1

experimentalSystem: T1, Human a7b1 Ecto (X2B) (human, UniProt P05556 21-728)
T1 construct: extracellular domain
T1 sequence (chain, as listed by the source, chain 1 of 2): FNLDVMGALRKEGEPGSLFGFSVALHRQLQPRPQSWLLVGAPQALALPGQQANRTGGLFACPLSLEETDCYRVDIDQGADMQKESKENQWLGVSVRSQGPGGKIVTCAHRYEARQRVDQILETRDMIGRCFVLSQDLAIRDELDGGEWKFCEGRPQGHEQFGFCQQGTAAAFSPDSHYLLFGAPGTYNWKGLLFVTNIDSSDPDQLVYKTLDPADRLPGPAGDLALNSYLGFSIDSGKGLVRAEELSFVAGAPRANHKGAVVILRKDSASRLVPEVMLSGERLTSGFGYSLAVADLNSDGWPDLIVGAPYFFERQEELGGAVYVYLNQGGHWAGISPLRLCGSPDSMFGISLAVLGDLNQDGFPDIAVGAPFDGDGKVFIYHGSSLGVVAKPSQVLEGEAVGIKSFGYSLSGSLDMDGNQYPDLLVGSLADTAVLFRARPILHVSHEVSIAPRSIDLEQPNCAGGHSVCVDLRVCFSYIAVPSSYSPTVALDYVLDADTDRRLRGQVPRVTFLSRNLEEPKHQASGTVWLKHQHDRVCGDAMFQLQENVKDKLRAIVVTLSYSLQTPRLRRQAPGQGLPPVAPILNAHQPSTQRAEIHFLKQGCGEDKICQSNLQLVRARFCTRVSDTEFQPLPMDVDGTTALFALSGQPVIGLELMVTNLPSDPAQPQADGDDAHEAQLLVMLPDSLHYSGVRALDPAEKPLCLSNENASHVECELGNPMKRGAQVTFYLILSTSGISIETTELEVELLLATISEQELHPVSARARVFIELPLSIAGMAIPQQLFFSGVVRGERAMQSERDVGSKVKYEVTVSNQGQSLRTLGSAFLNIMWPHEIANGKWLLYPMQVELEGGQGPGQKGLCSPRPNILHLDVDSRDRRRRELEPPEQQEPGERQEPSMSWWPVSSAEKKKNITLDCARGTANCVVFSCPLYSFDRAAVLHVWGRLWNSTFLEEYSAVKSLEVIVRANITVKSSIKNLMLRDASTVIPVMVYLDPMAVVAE
T1 sequence (P05556 21-728, chain 2 of 2): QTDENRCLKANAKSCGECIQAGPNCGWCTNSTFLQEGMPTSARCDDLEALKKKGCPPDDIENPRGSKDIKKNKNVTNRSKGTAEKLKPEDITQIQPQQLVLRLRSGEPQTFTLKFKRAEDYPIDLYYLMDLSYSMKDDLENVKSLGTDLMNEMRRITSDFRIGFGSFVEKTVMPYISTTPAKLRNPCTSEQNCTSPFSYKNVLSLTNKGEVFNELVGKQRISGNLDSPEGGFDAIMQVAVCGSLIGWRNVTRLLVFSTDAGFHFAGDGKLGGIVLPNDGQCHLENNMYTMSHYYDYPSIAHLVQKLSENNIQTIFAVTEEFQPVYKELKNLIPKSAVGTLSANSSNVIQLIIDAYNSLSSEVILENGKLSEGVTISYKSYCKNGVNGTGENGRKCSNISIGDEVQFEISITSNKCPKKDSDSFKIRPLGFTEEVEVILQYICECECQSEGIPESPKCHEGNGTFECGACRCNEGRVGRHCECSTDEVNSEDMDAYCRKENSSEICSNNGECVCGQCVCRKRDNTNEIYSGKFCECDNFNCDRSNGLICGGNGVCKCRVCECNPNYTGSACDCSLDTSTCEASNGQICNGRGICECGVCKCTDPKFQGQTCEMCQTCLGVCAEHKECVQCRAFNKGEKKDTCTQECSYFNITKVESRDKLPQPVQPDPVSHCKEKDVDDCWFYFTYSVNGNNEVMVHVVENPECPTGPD
assaySummary: SPR
reportedProperty: Kd

Please report Kd for the following binder: Ab30 (antibody, human IgG1, V domains shown) VH: EVQLVQSGAEVKKPGSSVKVSCKASGYSFTRYWMHWVRQAPGQGLEWIGKIDPSDSETRLNQEFRDRATLTVDKSTSTAYMELSSLRSEDTAVYYCARGGYFGEGWYHDVWGQGTLVTVSS VL: DIVMTQSPLSLPVTPGEPASISCRSSQSLVHRNGNTYLHWYLQKPGQSPQLLIYEVSKRASGVPDRFSGSGSGTDFTLKISRVEAEDVGVYFCAQSIQVPWTFGGGTKLEIK
3.99 nM

Please give measured Kd of the following entry: Ab26 (antibody, human IgG1, kappa, L234A L235A, V domains shown) VH: EVQLVQSGAEVKKPGSSVKVSCKASGYSFTRYWMHWVRQAPGQGLEWIGKIDPSDSETRLNQEFRDRATLTVDKSTSTAYMELSSLRSEDTAVYYCARGGYFGEEWYHDVWGQGTLVTVSS VL: DIVMTQSPLSLPVTPGEPASISCRSSQSLVHRNGNTYLHWYLQKPGQSPQLLIYEVSNRFTGVPDRFSGSGSGTDFTLKISRVEAEDVGVYFCAQSTQLPYTFGGGTKLEIKR
2.2 nM
